Target protein (sequence): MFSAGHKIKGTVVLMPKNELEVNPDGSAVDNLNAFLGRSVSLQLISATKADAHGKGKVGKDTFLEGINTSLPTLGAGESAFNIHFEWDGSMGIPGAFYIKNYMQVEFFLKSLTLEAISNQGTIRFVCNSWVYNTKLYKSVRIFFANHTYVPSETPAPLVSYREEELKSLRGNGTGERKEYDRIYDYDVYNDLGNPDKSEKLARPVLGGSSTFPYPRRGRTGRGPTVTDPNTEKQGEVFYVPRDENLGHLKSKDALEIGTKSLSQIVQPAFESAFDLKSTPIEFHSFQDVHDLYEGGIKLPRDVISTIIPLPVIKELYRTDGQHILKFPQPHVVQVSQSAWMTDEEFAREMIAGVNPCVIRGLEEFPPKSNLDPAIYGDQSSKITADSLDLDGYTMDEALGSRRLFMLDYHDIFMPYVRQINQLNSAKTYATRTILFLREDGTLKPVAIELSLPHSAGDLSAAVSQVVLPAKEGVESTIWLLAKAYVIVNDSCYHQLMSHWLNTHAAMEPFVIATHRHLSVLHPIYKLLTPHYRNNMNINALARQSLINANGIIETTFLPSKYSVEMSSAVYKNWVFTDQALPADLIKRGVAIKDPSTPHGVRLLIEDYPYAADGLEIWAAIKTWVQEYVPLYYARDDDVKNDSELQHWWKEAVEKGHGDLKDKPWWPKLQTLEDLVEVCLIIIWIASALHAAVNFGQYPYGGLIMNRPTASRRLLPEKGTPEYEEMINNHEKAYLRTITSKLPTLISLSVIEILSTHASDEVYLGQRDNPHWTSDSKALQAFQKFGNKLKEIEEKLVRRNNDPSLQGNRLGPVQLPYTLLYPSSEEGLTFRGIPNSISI
Quick list: pIC50 per entry.
# pIC50 is unitless: minus log10 of the molar concentration; print number only

Examples with answers:
molecule: COc1ccc(C2=NOC(c3cn(-c4ccccc4)nc3-c3ccc4ccccc4c3)C2)cc1 (stereo not shown) [Compound 5b]
metric: pIC50
testValue: 5.36

molecule: NC(=S)N1N=C(c2ccc(Cl)c(Cl)c2)CC1c1cn(-c2ccccc2)nc1-c1ccc2ccccc2c1 (stereo not shown) [Compound 6e]
metric: pIC50
testValue: 5.80

molecule: COc1ccc(C(=O)/C=C/c2cn(-c3ccccc3)nc2-c2ccc3ccccc3c2)cc1 [Compound 2b]
metric: pIC50
testValue: 5.50

Lookup result for COc1ccc(C2=NN(c3ccccc3)C(c3cn(-c4ccccc4)nc3-c3ccc4ccccc4c3)C2)cc1 (stereo not shown) [Compound 4b] ; measured pIC50: 5.40

---

Quick list: Superoxide IC50 per entry.
# protocolDetails: Superoxide scavenging assay (pyrogallol autoxidation)
# details: mean ± SEM of three experiments; pyrogallol autoxidation, 325 nm
Give the value, in units of µg/mL, as a plain number.

compound: COc1ccc(C2=NNC(c3cn(-c4ccccc4)nc3-c3ccc4ccccc4c3)C2)cc1 (stereo not shown) [Compound 3b]
displayUnit: µg/mL
Superoxide IC50: 118.65
--
compound: c1ccc(C2=NN(c3ccccc3)C(c3cn(-c4ccccc4)nc3-c3ccc4ccccc4c3)C2)cc1 (stereo not shown) [Compound 4a]
displayUnit: µg/mL
Superoxide IC50: 176.14
--
compound: COc1ccc(C2=NOC(c3cn(-c4ccccc4)nc3-c3ccc4ccccc4c3)C2)cc1 (stereo not shown) [Compound 5b]
displayUnit: µg/mL
Superoxide IC50: 101.8
--
compound: Cc1ccc(C2=NOC(c3cn(-c4ccccc4)nc3-c3ccc4ccccc4c3)C2)cc1 (stereo not shown) [Compound 5c]
displayUnit: µg/mL
Superoxide IC50: 44.54
--
compound: O=C1O[C@H]([C@@H](O)CO)C(O)=C1O [Ascorbic acid, reference compound]
displayUnit: µg/mL
Superoxide IC50: 124.99

Next up:
Lookup result for Cc1ccc(C2=NN(C(N)=S)C(c3cn(-c4ccccc4)nc3-c3ccc4ccccc4c3)C2)cc1 (stereo not shown) [Compound 6c] ; measured Superoxide IC50: 140.17
